# Test system: Micrococcus luteus
# experiment notes: Antimicrobial activity against Micrococcus luteus assessed as zone of inhibition >8 mm by twofold serial dilution method
# Format: functional
Output True for records whose MIC is lower than 100 µM, False for records at or above 100 µM.

{"columns": ["compound", "answer label"],
 "data": [
  ["CC1=NN(C(=O)c2cc3ccccc3oc2=O)C(=O)C1CNc1ccc(C(=O)O)cc1 (configuration not stated)", "False"]
]}

Find out if reported MIC for CC1=NN(C(=O)c2cc3ccccc3oc2=O)C(=O)C1CNc1ccc([N+](=O)[O-])cc1 (configuration not stated) is less than 100 µM
False

Find out if reported MIC for CC1=NN(C(=O)c2cc3ccccc3oc2=O)C(=O)C1CNc1ccccn1 (configuration not stated) is less than 100 µM
True

* * *

# System: Micrococcus luteus
# experiment notes: Antimicrobial activity against Micrococcus luteus assessed as zone of inhibition by agar diffusion method
# Type: functional
The source made the active and inactive calls. The rule behind the calls is not given here.
measurement name: diameter of the inhibition zone (DIZ)

{"columns": ["molecule", "diameter of the inhibition zone (DIZ)"],
 "data": [
  ["COc1ccc(NCC2C(=O)N(C(=O)c3cc4ccccc4oc3=O)N=C2C)cc1 (stereo unspecified)", "inactive"],
  ["CC1=NN(C(=O)c2cc3ccccc3oc2=O)C(=O)C1CNc1ccccn1 (stereo unspecified)", "12 mm"],
  ["CC1=NN(C(=O)c2cc3ccccc3oc2=O)C(=O)C1CNc1ccc(Cl)cc1 (stereo unspecified)", "18 mm"],
  ["CC1=NN(C(=O)c2cc3ccccc3oc2=O)C(=O)C1CNc1ccc(C(=O)O)cc1 (stereo unspecified)", "18 mm"],
  ["CC1=NN(C(=O)c2cc3ccccc3oc2=O)C(=O)C1CNc1ccc(O)cc1 (stereo unspecified)", "18 mm"],
  ["O=C(O)c1cn(C2CC2)c2cc(N3CCNCC3)c(F)cc2c1=O", "25 mm"],
  ["CC1=NN(C(=O)c2cc3ccccc3oc2=O)C(=O)C1CNc1c(O)cc(S(=O)(=O)O)c2ccccc12 (stereo unspecified)", "inactive"],
  ["CC1=NN(C(=O)c2cc3ccccc3oc2=O)C(=O)C1CNc1ccc([N+](=O)[O-])cc1 (stereo unspecified)", "15 mm"]
]}

Quick request: diameter of the inhibition zone (DIZ) for each listed item, please.
1. CC1=NN(C(=O)c2cc3ccccc3oc2=O)C(=O)C1CNc1ccc(S(N)(=O)=O)cc1 (stereo unspecified)
2. CC1=NN(C(=O)c2cc3ccccc3oc2=O)C(=O)C1CNc1cccc(S(N)(=O)=O)c1 (stereo unspecified)
3. CC1=NN(C(=O)c2cc3ccccc3oc2=O)C(=O)C1CNc1ccc(O)c(C(=O)O)c1 (stereo unspecified)

["inactive", "inactive", "12 mm"]

* * *

For each entry below, report its MIC value.
# Tested on: Staphylococcus aureus
# experiment notes: Antimicrobial activity against Staphylococcus aureus assessed as zone of inhibition >8 mm by twofold serial dilution method
# Format: functional
Numbers only, in µM.

Worked set:
{"columns": ["compound", "target", "MIC [µM]"],
 "data": [
  ["CC1=NN(C(=O)c2cc3ccccc3oc2=O)C(=O)C1CNc1c(O)cc(S(=O)(=O)O)c2ccccc12 (stereo not given)", "Staphylococcus aureus", 48],
  ["CC1=NN(C(=O)c2cc3ccccc3oc2=O)C(=O)C1CNc1cccc(S(N)(=O)=O)c1 (stereo not given)", "Staphylococcus aureus", 55],
  ["O=C(O)c1cn(C2CC2)c2cc(N3CCNCC3)c(F)cc2c1=O", "Staphylococcus aureus", 9.43],
  ["COc1ccc(NCC2C(=O)N(C(=O)c3cc4ccccc4oc3=O)N=C2C)cc1 (stereo not given)", "Staphylococcus aureus", 61.7]
]}

Quick request: MIC for each listed item, please.
1. CC1=NN(C(=O)c2cc3ccccc3oc2=O)C(=O)C1CNc1ccc(C(=O)O)cc1 (stereo not given)
2. CC1=NN(C(=O)c2cc3ccccc3oc2=O)C(=O)C1CNc1ccc(O)cc1 (stereo not given)
3. CC1=NN(C(=O)c2cc3ccccc3oc2=O)C(=O)C1CNc1ccc([N+](=O)[O-])cc1 (stereo not given)
4. CC1=NN(C(=O)c2cc3ccccc3oc2=O)C(=O)C1CNc1ccc(O)c(C(=O)O)c1 (stereo not given)
5. CC1=NN(C(=O)c2cc3ccccc3oc2=O)C(=O)C1CNc1ccccn1 (stereo not given)
6. CC1=NN(C(=O)c2cc3ccccc3oc2=O)C(=O)C1CNc1ccc(S(N)(=O)=O)cc1 (stereo not given)

[59.6, 63.9, 119, 115, 66.4, 55]
